Assay: qHTS for Inhibitors of human tyrosyl-DNA phosphodiesterase 1 (TDP1): qHTS in cells in absence of CPT; further: nearly all actives have a fitted effect of over 55% in size
Settings: DT40 Tdp1-/- hTDP1 cells, no CPT, ATP luminescence, 48 h
The campaign covered roughly 420,000 compounds. About 64,000 (15%) were called active. About 27% were inconclusive and are not listed. The call rests on the fitted dose curve; in most records, active means well fitted inhibition curve with a large enough effect; inconclusive means small, poorly fitted or top-dose-only effect; inactive means flat fitted curve, though single readings scatter. Only a sample is shown.
Your response should consist of one outcome taken from T = active, F = inactive

{"Compound": "COc1ccc(C(=O)CN2C(=O)NC(C)(c3ccc(C)cc3)C2=O)cc1OC (configuration not stated)", "Class label": "F"}

# lookup: test call for COc1ccc(C)cc1-n1c(-c2ccc(C)cc2)cc2c1CC(C)(C)CC2=O
T

What would you report for CN(C)CCN(C(=O)C1=COCCO1)c1nc2ccc(Cl)cc2s1 ?
F

What would you report for COc1ccc(N2CCN(C(=O)c3cn(C)c4ccc(S(=O)(=O)N5CCOCC5)cc4c3=O)CC2)cc1 ?
F

What would you report for CC1CCN(C(=O)/C(=C\c2ccccc2)NC(=O)c2ccccc2)CC1 ?
F

What would you report for Cc1nc2nc(SCC(=O)NCc3ccco3)nn2c(C)c1Cc1ccccc1 ?
F

What would you report for CCN(CC)c1ccc2c(Nc3ccccc3)c(C=O)c(=O)oc2c1 ?
F

What would you report for CCCCn1nnnc1NCc1cc(OC)c(OC)c(OC)c1 ?
F

What would you report for COc1ccccc1N1CCN(Cc2nnnn2CCc2ccccc2)CC1 ?
F

What would you report for c1ccc(CCn2nnnc2CN2CCN(C3CCCC3)CC2)cc1 ?
F

What would you report for O=C(Oc1cccc(NC2=NS(=O)(=O)c3ccccc32)c1)c1ccncc1 ?
F

What would you report for CNCC(O)c1ccc(O)c(O)c1 (configuration not stated) ?
F

What would you report for Oc1ccc(Br)cc1C1C=C(c2ccc3c(c2)OCO3)NC(c2ccc(Cl)cc2)N1 (configuration not stated) ?
T

What would you report for COc1ccc(CC(N)C(=O)NC2C(O)[C@H](n3cnc4c(N(C)C)ncnc43)O[C@@H]2CO)cc1 (some centres not stated) ?
T

What would you report for Clc1ccc(-n2nnnc2CN2CCCCC2)cc1Cl ?
F

What would you report for C=CCC(Nc1ccccc1)c1cccc(OC)c1OC (configuration not stated) ?
F

What would you report for CCCCn1nnnc1C(c1ccccc1)N1CCN(c2ccccc2OC)CC1 (configuration not stated) ?
T

What would you report for O=C(CN1C(=O)C2C3C=CC(C3)C2C1=O)NCCc1ccccc1Cl (configuration not stated) ?
F
